Value source: the Human Domainome abundance scans (Beltran et al. 2025)

B1: Arginine-glutamic acid dipeptide repeats protein, residues 502 to 543; numbered along this chain, Q9P2R6 (parent)
chain: LKGYACRHCFTTTSKDWHHGGRENILLCTDCRIHFKKYGELP

# Variants of: B1
# Experiment: abundance fitness (aPCA) (normalised: wild type 0, dead -1); higher = more abundant; growth selection in yeast, the domain comes from the species named
# Condition: Homo sapiens
Endpoint label: abundance fitness

# Mutation label, abundance fitness
rows = [
    ("T12F", -0.314),
    ("C6K", -0.886),
    ("R22I", -0.157),
]

From here, focus on the item given below.
Name the recorded abundance fitness for `E23C` . -0.159
